Target: T1, Cre recombinase monomer with Q311R mutation
T1 chain: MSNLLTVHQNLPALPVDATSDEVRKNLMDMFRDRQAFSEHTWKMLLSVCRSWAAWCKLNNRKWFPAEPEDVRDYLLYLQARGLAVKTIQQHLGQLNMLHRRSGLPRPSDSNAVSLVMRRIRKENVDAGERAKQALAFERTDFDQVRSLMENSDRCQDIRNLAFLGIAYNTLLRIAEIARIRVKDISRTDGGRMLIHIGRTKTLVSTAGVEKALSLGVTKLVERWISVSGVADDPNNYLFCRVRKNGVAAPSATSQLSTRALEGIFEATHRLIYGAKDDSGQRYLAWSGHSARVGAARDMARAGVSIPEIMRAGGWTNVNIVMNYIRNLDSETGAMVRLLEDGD
Provide the reported Median dimer activity (recombination on loxP) of each item.
Give bare numbers, in %.

Hello, I would appreciate it if you could give Median dimer activity (recombination on loxP) for each entry below.
1. Cre recombinase monomer with K201A mutation (protein) MSNLLTVHQNLPALPVDATSDEVRKNLMDMFRDRQAFSEHTWKMLLSVCRSWAAWCKLNNRKWFPAEPEDVRDYLLYLQARGLAVKTIQQHLGQLNMLHRRSGLPRPSDSNAVSLVMRRIRKENVDAGERAKQALAFERTDFDQVRSLMENSDRCQDIRNLAFLGIAYNTLLRIAEIARIRVKDISRTDGGRMLIHIGRTATLVSTAGVEKALSLGVTKLVERWISVSGVADDPNNYLFCRVRKNGVAAPSATSQLSTRALEGIFEATHRLIYGAKDDSGQRYLAWSGHSARVGAARDMARAGVSIPEIMQAGGWTNVNIVMNYIRNLDSETGAMVRLLEDGD
2. Cre recombinase monomer with R173T mutation (protein) MSNLLTVHQNLPALPVDATSDEVRKNLMDMFRDRQAFSEHTWKMLLSVCRSWAAWCKLNNRKWFPAEPEDVRDYLLYLQARGLAVKTIQQHLGQLNMLHRRSGLPRPSDSNAVSLVMRRIRKENVDAGERAKQALAFERTDFDQVRSLMENSDRCQDIRNLAFLGIAYNTLLTIAEIARIRVKDISRTDGGRMLIHIGRTKTLVSTAGVEKALSLGVTKLVERWISVSGVADDPNNYLFCRVRKNGVAAPSATSQLSTRALEGIFEATHRLIYGAKDDSGQRYLAWSGHSARVGAARDMARAGVSIPEIMQAGGWTNVNIVMNYIRNLDSETGAMVRLLEDGD
3. Cre recombinase monomer with R292C mutation (protein) MSNLLTVHQNLPALPVDATSDEVRKNLMDMFRDRQAFSEHTWKMLLSVCRSWAAWCKLNNRKWFPAEPEDVRDYLLYLQARGLAVKTIQQHLGQLNMLHRRSGLPRPSDSNAVSLVMRRIRKENVDAGERAKQALAFERTDFDQVRSLMENSDRCQDIRNLAFLGIAYNTLLRIAEIARIRVKDISRTDGGRMLIHIGRTKTLVSTAGVEKALSLGVTKLVERWISVSGVADDPNNYLFCRVRKNGVAAPSATSQLSTRALEGIFEATHRLIYGAKDDSGQRYLAWSGHSACVGAARDMARAGVSIPEIMQAGGWTNVNIVMNYIRNLDSETGAMVRLLEDGD
4. Cre recombinase monomer with E129R mutation (protein) MSNLLTVHQNLPALPVDATSDEVRKNLMDMFRDRQAFSEHTWKMLLSVCRSWAAWCKLNNRKWFPAEPEDVRDYLLYLQARGLAVKTIQQHLGQLNMLHRRSGLPRPSDSNAVSLVMRRIRKENVDAGRRAKQALAFERTDFDQVRSLMENSDRCQDIRNLAFLGIAYNTLLRIAEIARIRVKDISRTDGGRMLIHIGRTKTLVSTAGVEKALSLGVTKLVERWISVSGVADDPNNYLFCRVRKNGVAAPSATSQLSTRALEGIFEATHRLIYGAKDDSGQRYLAWSGHSARVGAARDMARAGVSIPEIMQAGGWTNVNIVMNYIRNLDSETGAMVRLLEDGD

[95, 92, 93, 93]
